Ref: paper PMC8536627

- Method Description: physchem
- Assay type: physicochemical
- Measurement Parameters: buffer, pH 4, 70 °C, range over pH 4, 7, 9; read-out: t½, half-life (converted)
Experimental Endpoint: half-life

Tell me half-life reported for O=P1(N(CCCl)CCCl)NCCCO1 (stereo not shown) [CP, cyclophosphamide]
150 to 156 min

---

- Method Description: physchem
- Measurement Parameters: aqueous buffer
The following molecules are listed with their measured half-life values.

Tell me half-life reported for CN(Cc1nc2c(N)nc(N)nc2nc1O)c1ccc(C(=O)N[C@@H](CCC(=O)O)C(=O)O)cc1 [7-OH-MTX, 7-hydroxymethotrexate]
≥ 365 days

Tell me half-life reported for CN(Cc1cnc2nc(N)nc(N)c2n1)c1ccc(C(=O)N[C@@H](CCC(=O)O)C(=O)O)cc1 [MTX, methotrexate]
≥ 365 days

---

The following molecules are listed with their measured half-life values.
- Method Description: physchem
- Assay type: physicochemical
- Measurement Parameters: buffer, pH 9, 50 °C, pH 9; read-out: t½, half-life (converted)
Unit h implied. Number only.

>>> value_observed("O=P1(NCCCl)OCCCN1CCCl (centres unmarked) [IF, ifosfamide]")
192

Tell me half-life reported for O=P1(N(CCCl)CCCl)NCCCO1 (centres unmarked) [CP, cyclophosphamide]
28.8

---

The following compounds are listed with their measured half-life values.
- Method Description: physchem
- Format: physicochemical
- Measurement Parameters: buffer, pH 4, 20 °C, pH 4; read-out: t½, half-life (converted)
Unit days implied. Number only.

>>> value_observed("O=P1(NCCCl)OCCCN1CCCl (centres unmarked) [IF, ifosfamide]")
76.8

Query compound follows.
Tell me half-life reported for O=P1(N(CCCl)CCCl)NCCCO1 (centres unmarked) [CP, cyclophosphamide]
81.8

---

- Method Description: physchem
- Type: physicochemical
- Measurement Parameters: buffer, pH 4, 20 °C, pH 4; read-out: Half-life (converted)
Experimental Endpoint: half-life

Tell me half-life reported for O=P1(NCCCl)OCCCN1CCCl (stereo not shown) [IF, ifosfamide]
~80 days

---

- Method Description: physchem
- Type: physicochemical
- Measurement Parameters: buffer, pH 9, 20 °C, pH 9; read-out: t½, half-life (converted)
Experimental Endpoint: half-life (days)
Unit days implied. Number only.

Tell me half-life reported for O=P1(N(CCCl)CCCl)NCCCO1 (stereo not shown) [CP, cyclophosphamide]
78.9

---

- Method Description: physchem
- Assay type: physicochemical
- Measurement Parameters: buffer, pH 7, 20 °C, pH 7; read-out: t½, half-life (converted)
Experimental Endpoint: half-life

Tell me half-life reported for O=P1(N(CCCl)CCCl)NCCCO1 (stereo not shown) [CP, cyclophosphamide]
77.8 days

---

- Method Description: physchem
- Assay type: physicochemical
- Measurement Parameters: buffer, pH 4, 50 °C, pH 4; read-out: t½, half-life (converted)
Experimental Endpoint: half-life (h)
Unit h implied. Number only.

>>> value_observed("O=P1(N(CCCl)CCCl)NCCCO1 (centres unmarked) [CP, cyclophosphamide]")
27.6

Query compound follows.
Tell me half-life reported for O=P1(NCCCl)OCCCN1CCCl (centres unmarked) [IF, ifosfamide]
86.5

---

- Method Description: physchem
- Type: physicochemical
- Measurement Parameters: buffer, pH 7, 10 °C, pH 7; read-out: t½, extrapolated half-life (converted)
Experimental Endpoint: half-life

>>> value_observed("O=P1(N(CCCl)CCCl)NCCCO1 (centres unmarked) [CP, cyclophosphamide]")
"393 days"

Query compound follows.
Tell me half-life reported for O=P1(NCCCl)OCCCN1CCCl (centres unmarked) [IF, ifosfamide]
6360 days

---

- Method Description: physchem
- Format: physicochemical
- Measurement Parameters: buffer, pH 7, 50 °C, pH 7; read-out: t½, half-life (converted)
- Experimental: Moreover, the complete preliminary test was repeated twice. […] Each measuring point was performed in two parallel replicates. where t, time; ct, c0, concentration of the analyte at a time (0 means the beginning of the test); k, rate constant. Based on this, the t1/2 was determined by using the equation: 2 t1/2=ln2/k where t1/2, half-life of the analyte; k, rate constant. The degradation was monitored for 30 days or until 90 % of a compound was degraded. […]
Experimental Endpoint: half-life (h)
Unit h implied. Number only.

>>> value_observed("O=P1(NCCCl)OCCCN1CCCl (centres unmarked) [IF, ifosfamide]")
242

Query compound follows.
Tell me half-life reported for O=P1(N(CCCl)CCCl)NCCCO1 (centres unmarked) [CP, cyclophosphamide]
29.4

---

- Method Description: physchem
- Format: physicochemical
- Measurement Parameters: buffer, pH 9, 70 °C, pH 9; read-out: t½, half-life (converted)
- Experimental: Moreover, the complete preliminary test was repeated twice. […] Each measuring point was performed in two parallel replicates. where t, time; ct, c0, concentration of the analyte at a time (0 means the beginning of the test); k, rate constant. Based on this, the t1/2 was determined by using the equation: 2 t1/2=ln2/k where t1/2, half-life of the analyte; k, rate constant. The degradation was monitored for 30 days or until 90 % of a compound was degraded. […]
Experimental Endpoint: half-life
Numeric answer plus unit only.

Tell me half-life reported for O=P1(N(CCCl)CCCl)NCCCO1 (centres unmarked) [CP, cyclophosphamide]
150 min

Tell me half-life reported for O=P1(NCCCl)OCCCN1CCCl (centres unmarked) [IF, ifosfamide]
840 min

---

The following compounds are listed with their measured half-life values.
- Method Description: physchem
- Type: physicochemical
- Measurement Parameters: buffer, pH 4, 4 °C, pH 4; read-out: t½, extrapolated half-life (converted)
Unit days implied. Number only.

>>> value_observed("O=P1(NCCCl)OCCCN1CCCl (centres unmarked) [IF, ifosfamide]")
349

Query compound follows.
Tell me half-life reported for O=P1(N(CCCl)CCCl)NCCCO1 (centres unmarked) [CP, cyclophosphamide]
568

---

- Method Description: physchem
- Type: physicochemical
- Measurement Parameters: 20 °C, all pH; read-out: Half-life (converted)
- Procedure: Moreover, the complete preliminary test was repeated twice. […] Each measuring point was performed in two parallel replicates. where t, time; ct, c0, concentration of the analyte at a time (0 means the beginning of the test); k, rate constant. Based on this, the t1/2 was determined by using the equation: 2 t1/2=ln2/k where t1/2, half-life of the analyte; k, rate constant. The degradation was monitored for 30 days or until 90 % of a compound was degraded. […]
Experimental Endpoint: half-life

Tell me half-life reported for O=P1(N(CCCl)CCCl)NCCCO1 (stereo not shown) [CP, cyclophosphamide]
~80 days

---

- Method Description: physchem
- Type: physicochemical
- Measurement Parameters: buffer, pH 4, 70 °C, pH 4; read-out: t½, half-life (converted)
- Method: Moreover, the complete preliminary test was repeated twice. […] Each measuring point was performed in two parallel replicates. where t, time; ct, c0, concentration of the analyte at a time (0 means the beginning of the test); k, rate constant. Based on this, the t1/2 was determined by using the equation: 2 t1/2=ln2/k where t1/2, half-life of the analyte; k, rate constant. The degradation was monitored for 30 days or until 90 % of a compound was degraded. […]
The following compounds are listed with their measured half-life values.
Unit h implied. Number only.

>>> value_observed("O=P1(N(CCCl)CCCl)NCCCO1 (centres unmarked) [CP, cyclophosphamide]")
2.6

Query compound follows.
Tell me half-life reported for O=P1(NCCCl)OCCCN1CCCl (centres unmarked) [IF, ifosfamide]
11.7

---

- Method Description: physchem
- Measurement Parameters: buffer
Experimental Endpoint: half-life

Tell me half-life reported for O=c1[nH]cc(F)c(=O)[nH]1
≥ 365 days

---

- Method Description: physchem
- Type: physicochemical
- Measurement Parameters: buffer, pH 9, 15 °C, pH 9; read-out: t½, extrapolated half-life (converted)
The following compounds are listed with their measured half-life values.
Unit days implied. Number only.

Tell me half-life reported for O=P1(NCCCl)OCCCN1CCCl (centres unmarked) [IF, ifosfamide]
1860

Tell me half-life reported for O=P1(N(CCCl)CCCl)NCCCO1 (centres unmarked) [CP, cyclophosphamide]
174
